Values compiled from patent US20110207796A1.

Listing of entries alongside the reported pEC50.
- System: synuclein phosphorylation by endogenous kinase
- Method Description: kinase inhibitor treatment of mouse cortical cultures (MCC), total and phospho-synuclein ELISA
- Format: cell-based
- Conditions Used: WT mouse cortical cultures; read-out: EC50, WT-MCC
- Experimental: Mouse cortical cultures from fetal (i) Swiss-Webster, (ii) C56BL/6 WT and (iii) C56BL/6 E46K-Synuclein Trangenic mice were prepared and maintained in B27/DMEM/1% Penicillin-Streptomycin at 37° C./10% CO2 for three to fourteen days and then treated with kinase inhibitors. Cultures were exposed to inhibitors for two hours in B27/DMEM/1% Penicillin-Streptomycin. […]
Please express pEC50 as -log10 of the molar concentration.

>>> value_measured("COC(=O)[C@@]1(O)C[C@H]2O[C@]1(C)n1c3ccccc3c3c4c(c5c6ccccc6n2c5c31)C(=O)NC4 [Compound K252A]")
5.52

Could you now look at the following compound, please?
Query: Sample CN(C)c1nc2c(Br)c(Br)c(Br)c(Br)c2[nH]1 — what was its pEC50?
Reply: 4.73
